assay_details: In vivo biodistribution in mice
Parameters: species or system normal CD-1 male mice
measurement_parameters: iv, 60 min (1 hr) post injection
metric: Biodistribution: Kidney

compound: O=C([O-])CN(CCN(CC(=O)[O-])Cc1cc(CCC(=O)NC(P(=O)(O)O)P(=O)(O)O)ccc1[O-])Cc1cc(CCC(=O)NCCCCCC(=O)NCCCC[C@H](NC(=O)N[C@@H](CCC(=O)O)C(=O)O)C(=O)O)ccc1[O-].[68Ga+3] [[^68Ga]1g]
experimental_value: 78.4 ± 7.11 % dose/g
//
compound: O=C(O)CN1CCN(CC(=O)O)CCN(CC(=O)NC(P(=O)(O)O)P(=O)(O)O)CCN(CC(=O)O)CC1.[68Ga] [[^68Ga]BPAMD, reference compound]
experimental_value: 2.88 ± 1.51 % dose/g
//
compound: O=C([O-])CN(CCN(CC(=O)[O-])Cc1cc(CCC(=O)N[C@@H](CC(=O)O)C(=O)O)ccc1[O-])Cc1cc(CCC(=O)NC(P(=O)(O)O)P(=O)(O)O)ccc1[O-].[68Ga+3] [[^68Ga]1e]
experimental_value: 2.12 ± 0.55 % dose/g
//
compound: O=C([O-])CN(CCN(CC(=O)[O-])Cc1cc(CCC(=O)NC(P(=O)(O)O)P(=O)(O)O)ccc1[O-])Cc1cc(CCC(=O)O)ccc1[O-].[68Ga+3] [[^68Ga]1a]
experimental_value: 1.63 ± 0.71 % dose/g
//
compound: O=C([O-])CN(CCN(CC(=O)[O-])Cc1cc(CCC(=O)NC(P(=O)(O)O)P(=O)(O)O)ccc1[O-])Cc1cc(CCC(=O)NC2C(O)OC(CO)C(O)C2O)ccc1[O-].[68Ga+3] (centres unmarked) [[^68Ga]1b]
experimental_value: 2.65 ± 0.44 % dose/g
//
compound: O=C([O-])CN(CCN(CC(=O)[O-])Cc1cc(CCC(=O)N[C@@H](CCC(=O)O)C(=O)O)ccc1[O-])Cc1cc(CCC(=O)NC(P(=O)(O)O)P(=O)(O)O)ccc1[O-].[68Ga+3] [[^68Ga]1f]
experimental_value: 1.59 ± 0.72 % dose/g
//
compound: [18F-].[Na+] [[^18F]NaF, reference compound]
experimental_value: 0.68 ± 0.36 % dose/g
//
compound: C[C@H](NC(=O)CCc1ccc([O-])c(CN(CCN(CC(=O)[O-])Cc2cc(CCC(=O)NC(P(=O)(O)O)P(=O)(O)O)ccc2[O-])CC(=O)[O-])c1)C(=O)O.[68Ga+3] [[^68Ga]1d]
experimental_value: 1.05 ± 0.17 % dose/g
//
compound: O=C([O-])CN(CCN(CC(=O)[O-])Cc1cc(CCC(=O)NC(P(=O)(O)O)P(=O)(O)O)ccc1[O-])Cc1cc(CCC(=O)NCCNC(=O)CN2CCN(CC(=O)O)CCN(CC(=O)O)CCN(CC(=O)O)CC2)ccc1[O-].[68Ga+3] [[^68Ga]1h]
experimental_value: 1.13 ± 0.08 % dose/g
//
compound: O=C([O-])CN(CCN(CC(=O)[O-])Cc1cc(CCC(=O)NC(P(=O)(O)O)P(=O)(O)O)ccc1[O-])Cc1cc(CCC(=O)NCC(=O)O)ccc1[O-].[68Ga+3] [[^68Ga]1c]
experimental_value: 1.88 ± 0.10 % dose/g
//
compound: O=C([O-])CN(CCN(CC(=O)[O-])Cc1cc(CCC(=O)O)ccc1[O-])Cc1cc(CCC(=O)O)ccc1[O-].[68Ga+3] [[^68Ga]HBED-CC, reference compound]
experimental_value: 0.91 ± 0.32 % dose/g
